Tested on: SW480
Assay: TCF/Wnt firefly luciferase reporter signal relative to plate median (fraction of plate median); higher = higher Wnt reporter signal
Conditions: 5 µM; treatment time 24 h; reporter: 7TFP
Rule: Met for TCF/Wnt firefly luciferase reporter signal not less than 1, Not met for anything less.

>>> assigned_label("O=C(O)CN1C(=O)c2cccc3cccc(c23)C1=O")
"Met"
>>> assigned_label("COc1ccc2c(c1)c(CC(=O)O)c(C)n2C(=O)c1ccc(Cl)cc1")
"Met"
>>> assigned_label("CC(=O)O[C@H]1CC[C@]2(C)C3=C(CC[C@H]2C1(C)C)[C@]1(C)CC[C@H]([C@H](C)CCC=C(C)C)[C@@]1(C)CC3")
"Not met"

INPUT: Determine whether this compound has TCF/Wnt firefly luciferase reporter signal no lower than 1: COC(=O)[C@@H]1[C@H]2C[C@H]3c4[nH]c5ccccc5c4CCN3C[C@@H]2CC[C@@H]1O
OUTPUT: Not met

----------
System: HCT116
Assay: cell viability (CellTiter-Glo) relative to plate median (fraction of plate median); higher = more viable cells
Settings: 5 µM; treatment time 24 h; reporter: TCF4/Wnt
What cell viability was measured for each of the following?
Answers are plain numbers.

These solved cases illustrate the format of a correct answer.
>>> endpoint_result("COC(=O)C[C@H]1C(C)(C)[C@@H](O)[C@@H]2CC3=C4C=C(OC)O[C@@H](c5ccoc5)[C@]4(C)CCC3[C@@]1(C)C2=O (stereo partly drawn) [3-DEOXO-3beta-HYDROXYMEXICANOLIDE 16-ENOL ETHER]")
0.91
>>> endpoint_result("CC(=O)O[C@@H]1CC(=O)[C@@]2(C)C(CC(=O)[C@]3(C)C2CC[C@@]2(C)[C@H](c4ccoc4)OC(=O)C4OC423)C1(C)C (some centres undefined)")
1.02
>>> endpoint_result("Cc1cc(C)nc(NS(=O)(=O)c2ccc(N)cc2)n1")
0.975
>>> endpoint_result("COc1cc(-c2coc3cc(OC)c(OC)c(OC)c3c2=O)cc(OC)c1OC")
1.18
>>> endpoint_result("CCN(CC)CCNC(=O)c1cc(Br)c(N)cc1OC")
1.07

Would you mind giving cell viability for every compound in the list below?
1. O=C1C[C@@H](c2ccc(O)cc2)Oc2cc(O)cc(O)c21
2. O=C(O)c1cn(C2CC2)c2cc(N3CCNCC3)c(F)cc2c1=O
3. COc1ccc2c(c1)[C@@]1(C)CCC(=O)C[C@H]1CC2

OUTPUT:
[1.05, 0.988, 1.07]

Entry NC(=O)C(c1ccccc1)(c1ccccc1)[C@@H]1CCN(CCc2ccc3c(c2)CCO3)C1 , cell viability reported as 0.983

----------
Test system: DLD1
Test: TCF/Wnt firefly luciferase reporter signal relative to plate median (fraction of plate median); higher = higher Wnt reporter signal
Settings: 5 µM; treatment time 24 h; reporter: 7TFP
parameter: TCF/Wnt firefly luciferase reporter signal

Consider the reported TCF/Wnt firefly luciferase reporter signal for these molecules:
>>> endpoint_result("COc1cc(OC)c2c(=O)c(-c3ccccc3)coc2c1")
1.09
>>> endpoint_result("NC[C@@H]1O[C@H](O[C@H]2[C@@H](O)[C@H](O[C@@H]3[C@@H](O)[C@H](N)C[C@H](N)[C@H]3O[C@H]3O[C@H](CO)[C@@H](O)[C@H](O)[C@H]3N)O[C@@H]2CO)[C@H](N)[C@@H](O)[C@@H]1O")
0.901

Take each entry in turn and give its TCF/Wnt firefly luciferase reporter signal.
1. C#C[C@]1(O)CC[C@H]2[C@@H]3CCc4cc(O)ccc4[C@H]3CC[C@@]21C
2. CC1(C)NC(=O)N(c2ccc([N+](=O)[O-])c(C(F)(F)F)c2)C1=O
3. COc1ccc(-c2cc(=O)c3c(OC(C)=O)cc(OC(C)=O)cc3o2)cc1
4. COc1c(O)cc(O)cc1O
5. C[C@]12CCC(=O)C=C1CC[C@@H]1[C@@H]2[C@@H](O)C[C@@]2(C)[C@H]1CC[C@]2(O)C(=O)COC(=O)CCC(=O)O
6. CC1(C)CC2C1CCC1(C)OC2(C)CCC1O (stereo not drawn)
7. CC(=O)OC/C=C(\C)CC/C=C(\C)CC/C=C(\C)CC/C=C(\C)CC/C=C(\C)CC/C=C(\C)CC/C=C(\C)CC/C=C(\C)CCC=C(C)C
8. C=CCSCC=C

OUTPUT:
[1.08, 1.02, 1.09, 1.09, 1.01, 1.02, 0.807, 0.959]

List reported TCF/Wnt firefly luciferase reporter signal for each of these molecules:
1. CCC(C)(C)C(=O)O[C@H]1C[C@@H](C)C=C2C=C[C@H](C)[C@H](CC[C@@H]3C[C@@H](O)CC(=O)O3)[C@H]21
2. CN1CCCC(n2nc(Cc3ccc(Cl)cc3)c3ccccc3c2=O)CC1 (stereo not drawn)
3. C=CC[S+]([O-])C[C@H](N)C(=O)O (stereo partly drawn)
4. CC(=O)O[C@H]1C[C@@H](OC(C)=O)C(C)(C)C2CC(=O)[C@]3(C)C(CC[C@@]4(C)[C@H](c5ccoc5)OC(=O)[C@H]5O[C@]543)[C@]21C (stereo partly drawn)
5. O=c1oc2ccccc2c(O)c1Cc1c(O)c2ccccc2oc1=O

OUTPUT:
0.902
1.17
0.986
1.06
1.18

----------
Test system: DLD1
Experiment: cell viability (CellTiter-Glo) relative to plate median (fraction of plate median); higher = more viable cells
Conditions: 5 µM; treatment time 24 h; reporter: 7TFP
Consider the cut-off 1. If the recorded cell viability is strictly smaller, the label is MET; if not, the label is NOT MET.

Recorded results for 3 molecules are shown here.
>>> assigned_label("CN(C(=O)C(Cl)Cl)c1ccc(OC(=O)c2ccco2)cc1")
"MET"
>>> assigned_label("CC(=O)Nc1ccc(S(=O)(=O)Nc2ccc([N+](=O)[O-])cc2)cc1")
"MET"
>>> assigned_label("CN(C)CCOC(C)(c1ccccc1)c1ccccn1 (stereo unspecified)")
"NOT MET"

INPUT: I wonder whether CC(=O)Oc1ccc(O)cc1 has cell viability below 1. Can you tell?
OUTPUT: NOT MET

----------
Tested on: DLD1
Assay: cell viability (CellTiter-Glo) relative to plate median (fraction of plate median); higher = more viable cells
Conditions: 5 µM; treatment time 24 h; reporter: 7TFP
parameter: cell viability
Numbers only.

>>> endpoint_result("CCN1CCN(C(=O)N[C@@H](C(=O)N[C@@H]2C(=O)N3C(C(=O)O)=C(CSc4nnnn4C)CS[C@H]23)c2ccc(O)cc2)C(=O)C1=O")
0.973
>>> endpoint_result("O=c1cc(CO)occ1O")
1.02
>>> endpoint_result("COc1cc(O)c(C(=O)/C=C/c2ccc(OC)c(O)c2)c(OC)c1")
1.06
>>> endpoint_result("CC(C)(C)NCC(O)c1cc(O)cc(O)c1 (centres undefined)")
1.04
>>> endpoint_result("C/C=C/CCC(=O)c1c(C)c(O)c(O)c(C)c1O")
1.11

// input: 8 molecules below; output: cell viability for each
1. N[C@@H](CSCSC[C@H](N)C(=O)O)C(=O)O
2. CC[C@H]1OC(=O)[C@H](C)[C@@H](O[C@H]2C[C@@](C)(OC)[C@@H](O)[C@H](C)O2)[C@H](C)[C@@H](O[C@@H]2O[C@H](C)C[C@H](N(C)C)[C@H]2O)[C@](C)(O)C[C@@H](C)CN(C)[C@H](C)[C@@H](O)[C@]1(C)O
3. CC(=O)OCC(=O)[C@@]1(O)CC[C@H]2[C@@H]3CCC4=CC(=O)C=C[C@]4(C)[C@H]3[C@@H](O)C[C@@]21C
4. CN(C)CCOc1ccc(/C(=C(/CCCl)c2ccccc2)c2ccccc2)cc1
5. O=c1oc2ccccc2c(O)c1Cc1c(O)c2ccccc2oc1=O
6. O=C(O)c1cc(=O)c2ccccc2o1
7. CCCCOc1ccc(OCCCN2CCOCC2)cc1
8. NC[C@H]1O[C@H](O[C@H]2[C@H](O[C@@H]3O[C@H](CO)[C@@H](O)[C@H]3O)[C@@H](O)[C@H](N)C[C@@H]2N)[C@H](N)[C@@H](O)[C@@H]1O

OUTPUT:
[0.966, 1.06, 0.992, 0.947, 0.959, 0.859, 0.904, 0.955]

----------
Tested on: DLD1
Assay: cell viability (CellTiter-Glo) relative to plate median (fraction of plate median); higher = more viable cells
Conditions: 5 µM; treatment time 24 h; reporter: 7TFP
parameter: cell viability
One number for each entry.

Previously resolved entries follow.
>>> endpoint_result("CC(=O)O[C@@H]1CC2C(C)(C)[C@H](O)C=C[C@]2(C)C2CC[C@@]3(C)[C@H](c4ccoc4)OC(=O)C4OC43[C@@]21C (stereo partly specified)")
1.05
>>> endpoint_result("CCOC(N)=O")
1.01
>>> endpoint_result("CCCCC[C@@H](O)[C@H]1C(=O)O[C@H](C)[C@@H](O)/C=C/C=C/C=C/C=C/C=C(\\C)[C@@H](O)C[C@H](O)C[C@H](O)C[C@H](O)C[C@H](O)C[C@H](O)C[C@@H]1O")
1.02
>>> endpoint_result("O=C(O)Cc1ccccc1Nc1c(Cl)cccc1Cl")
0.955
>>> endpoint_result("C#CCCCCCCCCCCCC(O)CC(O)COC(C)=O (stereo unspecified)")
1.02

Provide cell viability values for the following items, in order.
1. COC(=O)C1=C(C)NC(C)=C(C(=O)OCC(C)C)C1c1ccccc1[N+](=O)[O-] (stereo unspecified)
2. CCc1c(O)cc(C(C)CC)oc1=O (stereo unspecified)

OUTPUT:
1: 0.869; 2: 1.02
